Target: gelatinase B (UniProt P14780 107-707, limits assumed)
Sequence (P14780 107-707 limits assumed): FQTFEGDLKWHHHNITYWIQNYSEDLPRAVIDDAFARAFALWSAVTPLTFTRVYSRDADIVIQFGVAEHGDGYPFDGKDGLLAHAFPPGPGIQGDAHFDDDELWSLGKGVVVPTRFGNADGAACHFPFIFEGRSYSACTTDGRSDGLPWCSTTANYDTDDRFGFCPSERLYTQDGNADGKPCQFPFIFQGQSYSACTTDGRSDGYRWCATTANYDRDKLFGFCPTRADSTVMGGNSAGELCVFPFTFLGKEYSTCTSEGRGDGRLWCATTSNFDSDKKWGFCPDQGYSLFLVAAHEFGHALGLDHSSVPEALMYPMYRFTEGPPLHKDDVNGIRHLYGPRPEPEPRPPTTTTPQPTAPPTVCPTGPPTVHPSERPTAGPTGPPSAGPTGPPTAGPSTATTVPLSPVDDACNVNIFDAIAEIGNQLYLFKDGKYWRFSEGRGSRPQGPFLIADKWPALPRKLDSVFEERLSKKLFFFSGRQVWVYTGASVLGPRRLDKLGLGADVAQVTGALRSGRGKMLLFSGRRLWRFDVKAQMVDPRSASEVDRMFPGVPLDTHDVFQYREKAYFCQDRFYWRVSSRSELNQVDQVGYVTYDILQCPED
Experiment: cell-based or functional assay
*1 amine or outer side, *2 acyl side, *3 side chain or, on linkers, in order; H or OH if unused. [ ]: non-standard residue; d: D form. The star is where a group is joined. Dnp = O=[N+]([O-])c1ccc(*)c([N+](=O)[O-])c1; C(Me) = CSC[C@H](N[*:1])C(=O)[*:2]
readout-label: Selectivity v. Coll-3 (unitless)
Please state the figure in unitless; there is no need to write the unit.

So what does the record say about Selectivity v. Coll-3 for Dnp-GPAPLHV[C(Me)]-NH2 (SMILES CSC[C@H](NC(=O)[C@@H](NC(=O)[C@H](Cc1c[nH]cn1)NC(=O)[C@H](CC(C)C)NC(=O)[C@@H]1CCCN1C(=O)[C@H](C)NC(=O)[C@@H]1CCCN1C(=O)CNc1ccc([N+](=O)[O-])cc1[N+](=O)[O-])C(C)C)C(N)=O) [Dnp-GPAPLHVC(Me)-NH2] ?
11
